Tested on: Staphylococcus aureus
Assay: Antibacterial activity against Staphylococcus aureus SR20549 clinical isolate assessed as growth inhibition by CLSI broth microdilution method
Assay type: functional
MIC for assorted compounds

Worked set:
line.notation | target.of.assay | MIC
COC(=S)NC[C@H]1CN(c2ccc(N3CCNN(C(=O)CO)CC3)c(F)c2)C(=O)O1 | Staphylococcus aureus | 0.25 µg/mL
O=C(CO)N1CCN(c2ccc(N3C[C@H](CNc4ccon4)OC3=O)cc2F)CCN1 | Staphylococcus aureus | 1 µg/mL
O=C(CO)N1CCN(c2c(F)cc(N3C[C@H](CNc4ccon4)OC3=O)cc2F)CCO1 | Staphylococcus aureus | 0.25 µg/mL

Tested system Staphylococcus aureus; MIC recorded for `CC(=O)NC[C@H]1CN(c2cc(F)c(N3CCNOCC3)c(F)c2)C(=O)O1` was 1 µg/mL

Tested system Staphylococcus aureus; MIC recorded for `CC(=S)NC[C@H]1CN(c2cc(F)c(N3CCNN(C(=O)CO)CC3)c(F)c2)C(=O)O1` was 0.125 µg/mL

Tested system Staphylococcus aureus; MIC recorded for `O=C1O[C@@H](CNc2ccon2)CN1c1cc(F)c(N2CCNOCC2)c(F)c1` was 0.5 µg/mL

Tested system Staphylococcus aureus; MIC recorded for `CC(=S)NC[C@H]1CN(c2ccc(N3CCNN(C(=O)CO)CC3)c(F)c2)C(=O)O1` was 0.5 µg/mL

Tested system Staphylococcus aureus; MIC recorded for `CC(=O)NC[C@H]1CN(c2ccc(N3CCNN(C(=O)CO)CC3)c(F)c2)C(=O)O1` was 4 µg/mL

Tested system Staphylococcus aureus; MIC recorded for `COC(=S)NC[C@H]1CN(c2cc(F)c(N3CCNOCC3)c(F)c2)C(=O)O1` was 0.25 µg/mL
